Origin of the recorded values: patent US6057371A

Provide the recorded IC50 for the entries that follow.
experimental_system: sigma receptor
protocol_notes: Sigma receptor binding, [^3 H]DTG, brain membranes (both sigma-1 and sigma-2 sites)
Parameters: species or system guinea pig
study_conditions: Table 6; [^3 H]DTG
Give bare numbers, in nM.

Worked cases, IC50 given:
- molecule: "O=C(CCCCN1CCCCC1)c1cccc(Cl)c1"
  IC50 (nM): 4.18
- molecule: "OC1(c2ccccc2)CCNC1 (centres unmarked)"
  IC50 (nM): 6110
- molecule: "CCN(CC)CCOC(=O)C1c2ccccc2-c2ccccc21"
  IC50 (nM): 174
- molecule: "CN1CCc2ccccc2C(c2ccccc2)C1 (centres unmarked)"
  IC50 (nM): 6690
- molecule: "O=C(CCCCN1CCC(c2ccccc2)CC1)c1cccc(Cl)c1"
  IC50 (nM): 1.19

Below are 5 molecules. Give each one its IC50.
1. c1ccc(CCCCCCNCCCc2ccccc2)cc1
2. OC1(c2ccccc2)CC2CCC(C1)N2CCCCCc1ccccc1 (centres unmarked)
3. COc1ccc(CCCCCN2CCCCC2)cc1
4. O=C(CCCCN1CCC(c2ccc(Cl)cc2)CC1)c1ccc(Cl)cc1
5. COc1ccc(C(=O)CCCCN2CCCCC2)cc1

1: 3.62; 2: 2.21; 3: 5.19; 4: 1.97; 5: 10.9
